All values here come from patent US20210324028A1.

- experimental target: T1, human IL-15Rα (human, UniProt Q13261 31-205, limits assumed)
- T1 construct: also called hIL-15Rα; IL-15 receptor alpha
- T1 sequence (Q13261 31-205 limits assumed): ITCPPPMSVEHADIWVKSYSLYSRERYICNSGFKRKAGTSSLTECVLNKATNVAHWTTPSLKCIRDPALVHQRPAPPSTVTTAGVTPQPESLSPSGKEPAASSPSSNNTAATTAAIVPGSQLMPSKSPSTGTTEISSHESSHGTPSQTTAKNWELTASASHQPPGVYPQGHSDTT
- method description: SPR, steady state
Please respond with reported Kd for every item in the list.
Numbers only; they are read as µM.

Form field Kd, entry hIL-15 V49R/S29A (ligand) NWVNVISDLKKIEDLIQSMHIDATLYTEADVHPSCKVTAMKCFLLELQRISLESGDASIHDTVENLIILANNSLSSNGNVTESGCKECEELEEKNIKEFLQSFVHIVQMFINTGGGGSGHHHHHHHHGGGLNDIFEAQKIEWHE : 0.154

What the record says about hIL-15 V49R/S7D (ligand) NWVNVIDDLKKIEDLIQSMHIDATLYTESDVHPSCKVTAMKCFLLELQRISLESGDASIHDTVENLIILANNSLSSNGNVTESGCKECEELEEKNIKEFLQSFVHIVQMFINTGGGGSGHHHHHHHHGGGLNDIFEAQKIEWHE : Kd is 0.121

The measured Kd associated with hIL-15 V49R/S7E (ligand) NWVNVIEDLKKIEDLIQSMHIDATLYTESDVHPSCKVTAMKCFLLELQRISLESGDASIHDTVENLIILANNSLSSNGNVTESGCKECEELEEKNIKEFLQSFVHIVQMFINTGGGGSGHHHHHHHHGGGLNDIFEAQKIEWHE reads 0.0876

Sample hIL-15 V49R/L69T (ligand) NWVNVISDLKKIEDLIQSMHIDATLYTESDVHPSCKVTAMKCFLLELQRISLESGDASIHDTVENLIITANNSLSSNGNVTESGCKECEELEEKNIKEFLQSFVHIVQMFINTGGGGSGHHHHHHHHGGGLNDIFEAQKIEWHE ; Kd observed: 0.0636

hIL-15 V49R/N4M (ligand) NWVMVISDLKKIEDLIQSMHIDATLYTESDVHPSCKVTAMKCFLLELQRISLESGDASIHDTVENLIILANNSLSSNGNVTESGCKECEELEEKNIKEFLQSFVHIVQMFINTGGGGSGHHHHHHHHGGGLNDIFEAQKIEWHE yielded Kd of 0.0881

In plain terms, hIL-15 V49R/Q108D (ligand) NWVNVISDLKKIEDLIQSMHIDATLYTESDVHPSCKVTAMKCFLLELQRISLESGDASIHDTVENLIILANNSLSSNGNVTESGCKECEELEEKNIKEFLQSFVHIVDMFINTGGGGSGHHHHHHHHGGGLNDIFEAQKIEWHE has a documented Kd of 0.125

For reference, reported Kd for hIL-15 V49R/M109K (ligand) NWVNVISDLKKIEDLIQSMHIDATLYTESDVHPSCKVTAMKCFLLELQRISLESGDASIHDTVENLIILANNSLSSNGNVTESGCKECEELEEKNIKEFLQSFVHIVQKFINTGGGGSGHHHHHHHHGGGLNDIFEAQKIEWHE stands at 0.215
